- TEST_TARGET: bradykinin 1 receptor (B1R) of the rat (Rattus norvegicus, UniProt P97583)
- Construct: expressed in transfected cells; host or cells: CHO K1 cells
- Sequence (P97583 whole entry): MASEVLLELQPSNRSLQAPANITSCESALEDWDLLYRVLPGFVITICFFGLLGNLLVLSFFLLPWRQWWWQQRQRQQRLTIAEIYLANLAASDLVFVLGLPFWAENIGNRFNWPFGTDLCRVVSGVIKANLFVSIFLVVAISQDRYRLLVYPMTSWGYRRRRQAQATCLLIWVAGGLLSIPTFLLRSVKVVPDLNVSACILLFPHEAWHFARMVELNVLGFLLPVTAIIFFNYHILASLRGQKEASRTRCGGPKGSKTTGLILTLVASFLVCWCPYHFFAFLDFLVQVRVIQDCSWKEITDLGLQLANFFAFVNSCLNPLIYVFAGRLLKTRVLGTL
- ASSAY_INFO: Functional investigation on the rat bradykinin 1 receptor (B1R), Ca2+ FLIPR assay in CHO K1 rB1R cells
- Type: cell-based
- SETTINGS: CHO-K1, B1R antagonism rat; test substance 10 μM; Ca2+ FLIPR, CHO K1 rB1R cells; read-out: B1R Ant. r [10 μM] % Inhibition
QUANTITY: inhibition at 10 µM (%)
A number alone suffices; assume %.

In: Give a short answer stating reported inhibition at 10 µM for Cc1ccc(S(=O)(=O)N(C)CCOCC(=O)NCC2CCC(C(c3cccs3)N(C)C)CC2)cc1 (stereo not drawn) .
Out: 18

In: Give a short answer stating reported inhibition at 10 µM for O=C(COCC1CCCN1S(=O)(=O)c1c(Cl)cc(Cl)cc1Cl)NCC1CCC(C(CCc2ccccc2)N2CCCC2)CC1 (stereo not drawn) .
Out: 104

In: Give a short answer stating reported inhibition at 10 µM for O=C(COCC1CCCCN1S(=O)(=O)c1c(Cl)cc(Cl)cc1Cl)NC1CCC(C(c2ccccc2)N2CCCC2)CC1 (stereo not drawn) .
Out: 95

In: Give a short answer stating reported inhibition at 10 µM for COc1cc(C)c(S(=O)(=O)N(C)CCOCC(=O)NCCC2CCC(C(c3cccs3)N(C)C)CC2)c(C)c1 (stereo not drawn) .
Out: 103

In: Give a short answer stating reported inhibition at 10 µM for COc1ccc(-c2noc(C(=O)NCC(=O)NC3CCC(C(c4ccccc4)N(C)C)CC3)n2)cc1OC (stereo not drawn) .
Out: 20

In: Give a short answer stating reported inhibition at 10 µM for COc1ccc(S(=O)(=O)N2CCCCC2CCOCC(=O)NC2CCC(C(c3cccc(F)c3)N(C)C)CC2)cc1 (stereo not drawn) .
Out: 32

In: Give a short answer stating reported inhibition at 10 µM for CN(C)C(c1cccc(F)c1)C1CCC(CCNC(=O)COCC2CCCCN2S(=O)(=O)c2ccc(Cl)c(Cl)c2)CC1 (stereo not drawn) .
Out: 27

In: Give a short answer stating reported inhibition at 10 µM for O=C(COCC1CCCCN1S(=O)(=O)c1c(Cl)cc(Cl)cc1Cl)NCC1CCC(C(c2ccccc2)N2CCCC2)CC1 (stereo not drawn) .
Out: 105

In: Give a short answer stating reported inhibition at 10 µM for COc1ccc(S(=O)(=O)N2Cc3ccccc3CC2COCC(=O)NCC2CCC(C(c3ccccc3)N(C)C)CC2)cc1 (stereo not drawn) .
Out: 4

In: Give a short answer stating reported inhibition at 10 µM for Cc1cc(C)c(S(=O)(=O)N2CCC(OCC(=O)NC3CCC(C(c4cccc(F)c4)N(C)C)CC3)C2)c(C)c1 (stereo not drawn) .
Out: 30

In: Give a short answer stating reported inhibition at 10 µM for COc1ccc(S(=O)(=O)N2CCCCC2COCC(=O)NCC2CCC(C(c3cccs3)N(C)C)CC2)cc1OC (stereo not drawn) .
Out: 7

In: Give a short answer stating reported inhibition at 10 µM for COc1cc(C)c(S(=O)(=O)N2CCCC(OCC(=O)NCC3CCC(C(c4ccccc4)N4CCOCC4)CC3)C2)c(C)c1 (stereo not drawn) .
Out: 38

In: Give a short answer stating reported inhibition at 10 µM for Cc1ccc(S(=O)(=O)N(C)CCOCC(=O)NCCC2CCC(C(c3cccs3)N(C)C)CC2)cc1 (stereo not drawn) .
Out: -1

In: Give a short answer stating reported inhibition at 10 µM for CN(C)C(c1cccs1)C1CCC(CCNC(=O)COC2CCCN(S(=O)(=O)c3ccccc3)C2)CC1 (stereo not drawn) .
Out: 27

In: Give a short answer stating reported inhibition at 10 µM for CN(C)C(c1cccs1)C1CCC(NC(=O)COCCN(Cc2ccccc2)S(=O)(=O)c2ccccc2)CC1 (stereo not drawn) .
Out: 3

====

Kindly state inhibition at 10 µM for each of the entries shown.
- TEST_TARGET: human bradykinin 1 receptor (B1R) (Homo sapiens)
- Construct: expressed in transfected cells; host or cells: CHO K1 cells
- Sequence (P46663 whole entry): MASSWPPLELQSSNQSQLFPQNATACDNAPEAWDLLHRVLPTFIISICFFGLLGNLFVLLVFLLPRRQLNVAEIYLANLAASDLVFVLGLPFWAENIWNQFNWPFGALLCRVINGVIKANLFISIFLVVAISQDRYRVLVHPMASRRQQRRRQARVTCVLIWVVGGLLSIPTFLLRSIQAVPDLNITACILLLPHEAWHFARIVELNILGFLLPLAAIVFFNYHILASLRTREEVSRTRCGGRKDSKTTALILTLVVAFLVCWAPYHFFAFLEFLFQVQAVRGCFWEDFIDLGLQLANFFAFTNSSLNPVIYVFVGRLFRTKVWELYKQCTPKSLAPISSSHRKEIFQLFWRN
- ASSAY_INFO: Functional investigation on the human bradykinin 1 receptor (B1R), Ca2+ FLIPR assay in CHO K1 hB1R cells
- Format: cell-based
- SETTINGS: CHO-K1, B1R antagonism human; test substance 10 μM; % inhibition compared with the maximum achievable inhibition; read-out: B1R Ant. h [10 μM] % Inhibition
A number alone suffices; assume %.

In: Give a short answer stating reported inhibition at 10 µM for CN1CCN(C(c2ccccc2)C2CCN(C(=O)COCC3CCc4ccccc4N3S(=O)(=O)c3ccc(Cl)c(Cl)c3)CC2)CC1 (stereo not shown) .
Out: 102

In: Give a short answer stating reported inhibition at 10 µM for COc1cc(C)c(S(=O)(=O)N(C)CCOCC(=O)N2CCC(C(CCc3ccccc3)N3CCN(C)CC3)CC2)c(C)c1 (stereo not shown) .
Out: 106

In: Give a short answer stating reported inhibition at 10 µM for COc1cc(C)c(S(=O)(=O)N2CCCCC2COCC(=O)N2CCC(C(CCc3ccccc3)N3CCN(C)CC3)CC2)c(C)c1 (stereo not shown) .
Out: 109

In: Give a short answer stating reported inhibition at 10 µM for COc1cc(C)c(S(=O)(=O)N(C)CCOCC(=O)N2CCC(C(c3cccc(F)c3)N3CCN(C)CC3)CC2)c(C)c1 (stereo not shown) .
Out: 110

In: Give a short answer stating reported inhibition at 10 µM for CN1CCN(C(Cc2ccccc2)C2CCN(C(=O)COCC3CCc4ccccc4N3S(=O)(=O)c3ccc(Cl)c(Cl)c3)CC2)CC1 (stereo not shown) .
Out: 105

In: Give a short answer stating reported inhibition at 10 µM for COc1cc(C)c(S(=O)(=O)N2CCCCC2COCC(=O)N2CCC(C(c3ccc(F)cc3)N3CCN(C)CC3)CC2)c(C)c1 (stereo not shown) .
Out: 103

In: Give a short answer stating reported inhibition at 10 µM for COc1cc(C)c(S(=O)(=O)N2CCCCC2COCC(=O)N2CCC(C(c3cccc(F)c3)N3CCN(C)CC3)CC2)c(C)c1 (stereo not shown) .
Out: 108

In: Give a short answer stating reported inhibition at 10 µM for COc1cc(C)c(S(=O)(=O)N2CCCCC2COCC(=O)N2CCC(C(Cc3ccccc3)N3CCN(C)CC3)CC2)c(C)c1 (stereo not shown) .
Out: 106

In: Give a short answer stating reported inhibition at 10 µM for CN1CCN(C(c2ccc(F)cc2)C2CCN(C(=O)COCC3CCc4ccccc4N3S(=O)(=O)c3ccc(Cl)c(Cl)c3)CC2)CC1 (stereo not shown) .
Out: 122

In: Give a short answer stating reported inhibition at 10 µM for CN(C)C(CCc1ccccc1)C1CCC(NC(=O)CCNC(=O)c2nc(-c3cccs3)no2)CC1 (stereo not shown) .
Out: 0

====

- TEST_TARGET: human μ opiate receptor (Homo sapiens)
- Construct: purchased PerkinElmer Life Sciences, Zaventem, Belgium RB-HOM; host or cells: CHO-K1 cells (membrane preparation)
- Sequence (P35372 whole entry): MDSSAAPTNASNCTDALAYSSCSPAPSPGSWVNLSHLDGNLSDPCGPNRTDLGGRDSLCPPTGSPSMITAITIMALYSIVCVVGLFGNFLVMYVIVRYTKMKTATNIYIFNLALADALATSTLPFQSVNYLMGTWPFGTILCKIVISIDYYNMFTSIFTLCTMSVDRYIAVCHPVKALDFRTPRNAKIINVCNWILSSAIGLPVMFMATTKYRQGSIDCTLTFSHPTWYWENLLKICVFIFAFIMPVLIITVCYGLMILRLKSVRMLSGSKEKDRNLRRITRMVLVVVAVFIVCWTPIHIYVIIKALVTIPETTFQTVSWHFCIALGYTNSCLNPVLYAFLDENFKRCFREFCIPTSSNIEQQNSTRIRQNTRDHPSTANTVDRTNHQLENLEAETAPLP
- ASSAY_INFO: Affinity for the human μ opiate receptor ([3H]-naloxone displacement, CHO-K1 receptor membrane preparation, SPA)
- Format: binding
- SETTINGS: test concentration of 1 μM; read-out: μ (binding on the μ opioid receptor, % inhibition)
Kindly state inhibition at 1 µM for each of the entries shown.
A number alone suffices; assume %.

In: Give a short answer stating reported inhibition at 1 µM for CN(C)C(c1ccccc1)C1CCC(CNC(=O)COCCN(C)S(=O)(=O)c2ccc(OC(F)(F)F)cc2)CC1 (centres unmarked) .
Out: 95

In: Give a short answer stating reported inhibition at 1 µM for COc1ccc(S(=O)(=O)N2CCC(OCC(=O)NCCC3CCC(C(c4cccs4)N(C)C)CC3)C2)cc1OC (centres unmarked) .
Out: 93

In: Give a short answer stating reported inhibition at 1 µM for Cc1ccc(S(=O)(=O)N2CCC(OCC(=O)NC3CCC(C(c4cccs4)N(C)C)CC3)C2)cc1 (centres unmarked) .
Out: 80

In: Give a short answer stating reported inhibition at 1 µM for CN(C)C(c1cccs1)C1CCC(CNC(=O)COC2CCN(S(=O)(=O)c3ccc(Cl)cc3)C2)CC1 (centres unmarked) .
Out: 95

In: Give a short answer stating reported inhibition at 1 µM for Cc1ccc(S(=O)(=O)N2CCC(OCC(=O)NCC3CCC(C(c4ccccc4)N(C)C)CC3)C2)cc1 (centres unmarked) .
Out: 91

In: Give a short answer stating reported inhibition at 1 µM for Cc1ccc(S(=O)(=O)N2CCC(OCC(=O)NC3CCC(C(c4cccc(F)c4)N(C)C)CC3)C2)cc1 (centres unmarked) .
Out: 82

In: Give a short answer stating reported inhibition at 1 µM for CN(C)C(c1ccccc1)C1CCC(NC(=O)COCCN(C)S(=O)(=O)c2c(Cl)cc(Cl)cc2Cl)CC1 (centres unmarked) .
Out: 96

In: Give a short answer stating reported inhibition at 1 µM for Cc1cc(C)c(S(=O)(=O)N2CCC(OCC(=O)NCC3CCC(C(c4cccc(F)c4)N(C)C)CC3)C2)c(C)c1 (centres unmarked) .
Out: 88
